# run_description: reversal of MRP1-mediated doxorubicin resistance, pilot screen, H69AR cells, doxorubicin co-treatment (AID 601)
# condition_parameters: H69AR cells, CellTiter-Glo, 72 h; compound alone cytotoxicity; at 10 µM
Could you please report measured viability for the items listed next?
Lab book: enter the figure in %, no units written.

query: I'd like to know its viability. The compound in question is `CCCCNC(=O)c1nc2ncc(Br)cn2n1`
result: 85.4

query: Again, but for `COC(=O)Nc1nc2c(C)cccc2s1`
result: 85.4

query: Request: `Cc1cccc(-n2ccnc2SCC(=O)Nc2cc(C)on2)c1`
result: 99.1

query: Then this compound: `COc1ccccc1N1CCN(Cc2nnnn2CCc2ccccc2)CC1`
result: 93.2

query: Okay, and `CCN(CCCNC(=O)CCNC(=O)Cn1ccc2ccccc2c1=O)c1ccccc1` ?
result: 98.3

query: Try this compound too: `CCN(CC)S(=O)(=O)c1ccc(S(=O)(=O)N(Cc2ccccn2)Cc2ccco2)cc1`
result: 91

query: What do we get for CN1C(=O)CC(N2CCC(C(N)=O)(N3CCCCC3)CC2)C1=O (configuration not stated) ?
result: 98.9

query: What do we get for `O=C(CN1CCCCCC1)OCCN=C1NS(=O)(=O)c2ccccc21` ?
result: 113

query: Likewise for `Cc1cc(C)c2c(n1)sc1c(N3CCOCC3)ncnc12` ?
result: 76.6

query: Would you mind doing `COC(=O)Nc1ccc(S(=O)(=O)N(C)CC(F)(F)C(F)F)cc1` as well?
result: 93.1

query: Quick one: `CCSc1ccccc1C(=O)Nc1cccc(OC)c1`
result: 98.4

query: Please give the result for `COc1cccc(NC(=O)Nc2cccs2)c1` too.
result: 79.5

Origin of the recorded values: PubChem BioAssay
